Tested on: human plasma protein
Experiment: in vitro
Procedure: Samples at the dosing and receiving ends and at the preparation instant (0 h) were assayed by LC-MS/MS, and the plasma protein binding (PPB) rates and the recovery rates were calculated based on the assay results. The plasma samples and PBS samples prepared from the test samples and the commercially available controls were incubated at 37° C. for 6 h with oscillation (100 rpm) and then assayed for stability.
Measure name: recovery at 6 h, 300 ng/mL (%)
Write it as a number; the unit % goes unstated.

// recorded recovery at 6 h, 300 ng/mL for CC(=O)CC(c1ccccc1)c1c(O)c2ccccc2oc1=O (stereo not shown) : 96.2
